assay: Toxicity liver stage against HepG2, at 10uM; format: cell-based; design: test concentration 10 uM, cell line HepG2-A16-CD81EGFP; settings: human, HepG2-A16-CD81EGFP cells; read-out: INHIBITION
cytotoxicity at 10 µM for assorted molecules
The response must be a number in % with no trailing unit.

The following molecules have reported results that may help.
molecule=Cc1nc(CN2CCN(CC(=O)Nc3c(C)cccc3C)CC2)no1 readout="cytotoxicity at 10 µM" number=-3.1
molecule="CN(Cc1ccc2c(c1)OCO2)C(=O)c1ccc(C2CCCO2)s1 (stereo unspecified)" readout="cytotoxicity at 10 µM" number=5.6

Problem: Return reported cytotoxicity at 10 µM; argument: CC(C)=CCN1CCN(Cc2ncc[nH]2)[C@H]2CS(=O)(=O)C[C@H]21
Solution: 5.44

Problem: Return reported cytotoxicity at 10 µM; argument: CC(C)CNC(=O)N1CCOC2(CCNCC2)C1
Solution: 9.28

Problem: Return reported cytotoxicity at 10 µM; argument: CCS(=O)(=O)N1C[C@@H]2CN(Cc3ccco3)CCO[C@@H]2C1
Solution: -122

====

cytotoxicity at 10 µM for assorted compounds
experiment: Toxicity liver stage against HepG2, at 10uM; format: cell-based; set-up: test concentration 10 uM, cell line HepG2-A16-CD81EGFP; settings: human, HepG2-A16-CD81EGFP cells; read-out: INHIBITION
The response must be a number in % with no trailing unit.

compound=CCC(CC)CN(C)Cc1nc(-c2ccccc2NS(C)(=O)=O)oc1C readout="cytotoxicity at 10 µM" number=-7.69
compound=CCn1c(N)nc2cc(C(=O)NCCc3ccccc3F)cnc21 readout="cytotoxicity at 10 µM" number=-1.83
compound="Cc1noc2ncc(C(=O)NCC3CCS(=O)(=O)C3)cc12 (centres undefined)" readout="cytotoxicity at 10 µM" number=-18.9
compound=O=C(c1cscn1)N1CC[C@H]2C[C@@H](c3ccncn3)O[C@@H]2C1 readout="cytotoxicity at 10 µM" number=-76.6
compound=CCOC[C@@H]1CCC[C@@]12CN(Cc1nccs1)CCO2 readout="cytotoxicity at 10 µM" number=1.77
compound=Cc1cc(NCCc2nc(C)c[nH]2)nc(-c2ccccc2O)n1 readout="cytotoxicity at 10 µM" number=1.5
compound=CC(=O)N1CCCN(C(=O)c2ccn(-c3cccc(Cl)c3)n2)CC1 readout="cytotoxicity at 10 µM" number=-1.37
compound=CCOCc1ncn2c1CN(S(=O)(=O)c1cccc(C)c1)CC2 readout="cytotoxicity at 10 µM" number=-1.33
compound=O=C(Cn1nc(Br)nc1Br)N1CCCCC1 readout="cytotoxicity at 10 µM" number=-4.38
compound=COCCN1CCC2(C1)CN(c1ncccn1)C2 readout="cytotoxicity at 10 µM" number=10.7

Problem: Return reported cytotoxicity at 10 µM; argument: COc1ccc(Oc2ncccc2NC(=O)N2CCOCC2C)cc1 (centres undefined)
Solution: -2.43

Problem: Return reported cytotoxicity at 10 µM; argument: CN(C)C(=O)COCC1CN(Cc2cccs2)Cc2ncn(C)c21 (centres undefined)
Solution: 13.1

Problem: Return reported cytotoxicity at 10 µM; argument: CCc1noc(CC)c1CNC(=O)Nc1cccc(C(=O)N(C)C)c1
Solution: 16.4

Problem: Return reported cytotoxicity at 10 µM; argument: Cc1c[nH]c(CN(C)C(=O)C2CC(=O)N(Cc3ccncc3)C2)n1 (centres undefined)
Solution: 16.7

Problem: Return reported cytotoxicity at 10 µM; argument: Cc1nc(CNCC2CCCN2c2cccnn2)no1 (centres undefined)
Solution: -1.59

Problem: Return reported cytotoxicity at 10 µM; argument: CN(CCCc1n[nH]c(N)c1C#N)C(=O)NC1CC1
Solution: 5.85

Problem: Return reported cytotoxicity at 10 µM; argument: COCC(=O)NCc1ccc(-c2ncncc2C(=O)N(C)C)cc1
Solution: 3.02

Problem: Return reported cytotoxicity at 10 µM; argument: CC(C)n1nc2c(cc1=O)CN(CCOc1cccc(C#N)c1)CC2
Solution: 13.6

Problem: Return reported cytotoxicity at 10 µM; argument: CC(=O)N1CCO[C@@H]2CN(S(=O)(=O)c3cccs3)CC[C@@H]2C1
Solution: 7.66

Problem: Return reported cytotoxicity at 10 µM; argument: O=C(C1CCCN1S(=O)(=O)C1CCCC1)N1CCSCC1 (centres undefined)
Solution: 4.71

Problem: Return reported cytotoxicity at 10 µM; argument: COc1ccc2c(ccn2CCC(=O)Nc2n[nH]c(C(C)C)n2)c1
Solution: 3.3

Problem: Return reported cytotoxicity at 10 µM; argument: CC(C)c1nc(CN(C)C2CCN(Cc3nc(C4CC4)no3)C2)no1 (centres undefined)
Solution: -9.37

Problem: Return reported cytotoxicity at 10 µM; argument: Cc1ccc2c(n1)N(CCN(C)C)CCN(Cc1c(C)noc1C)C2
Solution: 5.74

Problem: Return reported cytotoxicity at 10 µM; argument: Clc1ccc(C(CNCc2cccnc2)n2cccn2)cc1 (centres undefined)
Solution: -5.07

Problem: Return reported cytotoxicity at 10 µM; argument: Cn1ccc(C(=O)N2CCC[C@]3(C[C@@H](OCc4ccccn4)CO3)C2)n1
Solution: 0.333

Problem: Return reported cytotoxicity at 10 µM; argument: Clc1ccc(-c2cnc(CNC3CCc4ncnn4C3)o2)cc1 (centres undefined)
Solution: -4.36

Problem: Return reported cytotoxicity at 10 µM; argument: Cc1nc(-c2ccsc2)ccc1C(=O)N(C)CC1CC1
Solution: 2.83

Problem: Return reported cytotoxicity at 10 µM; argument: NC(=O)c1cnc(NC2CCN(c3ccccn3)CC2)c(Cl)c1
Solution: 13.8

Problem: Return reported cytotoxicity at 10 µM; argument: Cc1cc(NC(=O)CN2CCCC2c2noc(C)n2)n(C(C)(C)C)n1 (centres undefined)
Solution: 1.53

Problem: Return reported cytotoxicity at 10 µM; argument: Fc1ccccc1-c1nnn(CCCc2nn[nH]n2)n1
Solution: -4.3

Problem: Return reported cytotoxicity at 10 µM; argument: CC(CNCc1ccc(F)cc1)Oc1ccccn1 (centres undefined)
Solution: 6.97

Problem: Return reported cytotoxicity at 10 µM; argument: CCN(C1CCS(=O)(=O)C1)S(=O)(=O)c1cccc2cc(C)cnc12 (centres undefined)
Solution: -11

Problem: Return reported cytotoxicity at 10 µM; argument: O=C(NC[C@H]1OC[C@@H](NCc2ccccc2F)[C@@H]1O)c1ccc(F)cc1
Solution: -1.26

Problem: Return reported cytotoxicity at 10 µM; argument: O=C(c1cnc(NCCC2CCCO2)c(Cl)c1)N1CCOCC1 (centres undefined)
Solution: 7.74

Origin of values: ChEMBL document CHEMBL4513216
